>  <line.notation>
CC(C)n1c(=O)sc2cc(N3C[C@H](C(N)=O)OC3=O)ccc21

>  <melting point>
183 to 184.5 °C

$$$$
>  <line.notation>
CN1C(=O)CCc2cc(N3C[C@H](C(N)=O)OC3=O)cc(F)c21

>  <melting point>
260 to 262 °C

$$$$
>  <line.notation>
NC(=O)[C@H]1CN(c2ccc(N3CCS(=O)(=O)CC3)c(F)c2)C(=O)O1

>  <melting point>
245 to 247 °C (dec.)

$$$$
>  <line.notation>
CNC(=O)[C@H]1CN(c2ccc3c(c2)oc(=O)n3C)C(=O)O1

>  <melting point>
304 to 306 °C

$$$$
>  <line.notation>
NC(=O)[C@H]1CN(c2ccc(C3CCS(=O)(=O)CC3)cc2)C(=O)O1

>  <melting point>
211 to 212 °C

$$$$
>  <line.notation>
Cn1c(=O)oc2cc(N3C[C@H](C(N)=O)OC3=O)ccc21

>  <melting point>
> 260 °C

$$$$
>  <line.notation>
NC(=O)[C@H]1CN(c2ccc(N3CCOCC3)c(F)c2)C(=O)O1

>  <melting point>
185 to 187 °C (dec.)

$$$$
>  <line.notation>
CNC(=O)[C@H]1CN(c2ccc3c(c2)sc(=O)n3C(C)C)C(=O)O1

>  <melting point>
172 to 173.5 °C

$$$$
>  <line.notation>
NC(=O)[C@H]1CN(c2ccc(N3CCS(=O)(=O)CC3)cc2)C(=O)O1

>  <melting point>
226 to 228 °C

$$$$
>  <line.notation>
NC(=O)[C@H]1CN(c2ccc(N3CC[S+]([O-])CC3)c(F)c2)C(=O)O1

>  <melting point>
264 to 266 °C (dec.)

$$$$
>  <line.notation>
CCn1c(=O)oc2cc(N3C[C@H](C(N)=O)OC3=O)ccc21

>  <melting point>
234 to 236 °C

$$$$
>  <line.notation>
CCn1c(=O)sc2cc(N3C[C@H](C(N)=O)OC3=O)ccc21

>  <melting point>
211 to 212.5 °C

$$$$

* * *

The following compounds are listed with their measured melting point values.
measurement.name: melting point

>  <compound>
NC(=O)[C@H]1CN(c2ccc(C3=NNC(=O)CS3)c(F)c2)C(=O)O1

>  <observed.result>
249 to 251 °C

$$$$
>  <compound>
NC(=O)[C@H]1CN(c2cc(F)c(C3CCS(=O)(=O)CC3)c(F)c2)C(=O)O1

>  <observed.result>
243 to 245 °C

$$$$
>  <compound>
NC(=O)[C@H]1CN(c2ccc(N3CCN(C(=O)CO)CC3)c(F)c2)C(=O)O1

>  <observed.result>
232 to 235 °C (dec.)

$$$$
>  <compound>
CC(C)n1c(=O)oc2cc(N3C[C@H](C(N)=O)OC3=O)ccc21

>  <observed.result>
182.5 to 184 °C

$$$$
>  <compound>
NC(=O)[C@H]1CN(c2ccc([C@H]3CC[S@@+]([O-])CC3)cc2)C(=O)O1

>  <observed.result>
269 to 273 °C (dec.)

$$$$
>  <compound>
NC(=O)[C@H]1CN(c2ccc(-c3ccncc3)c(F)c2)C(=O)O1

>  <observed.result>
256 to 259 °C (dec.)

$$$$
>  <compound>
NC(=O)[C@H]1CN(c2ccc([C@H]3CC[S@+]([O-])CC3)c(F)c2)C(=O)O1

>  <observed.result>
201 to 203 °C

$$$$
>  <compound>
CONC(=O)[C@H]1CN(c2ccc(N3CCOCC3)c(F)c2)C(=O)O1

>  <observed.result>
206 to 208 °C (dec.)

$$$$
>  <compound>
CNC(=O)[C@H]1CN(c2ccc3c(c2)oc(=O)n3C(C)C)C(=O)O1

>  <observed.result>
216 to 218 °C

$$$$
>  <compound>
CNC(=O)[C@H]1CN(c2cc(F)c(N3CCS(=O)(=O)CC3)c(F)c2)C(=O)O1

>  <observed.result>
243 to 246 °C

$$$$
>  <compound>
NC(=O)[C@H]1CN(c2ccc(C3CCS(=O)(=O)CC3)c(F)c2)C(=O)O1 [Example 28]

>  <observed.result>
231 to 234 °C (dec.)

$$$$
>  <compound>
Cn1c(=O)sc2cc(N3C[C@H](C(=O)NCCF)OC3=O)ccc21

>  <observed.result>
201 to 203 °C

$$$$
>  <compound>
NC(=O)[C@H]1CN(c2cc(F)c(N3CCS(=O)(=O)CC3)c(F)c2)C(=O)O1

>  <observed.result>
245 to 248 °C (dec.)

$$$$
>  <compound>
C[C@@H]1Cc2cc(N3C[C@H](C(N)=O)OC3=O)ccc2N1C=O

>  <observed.result>
228 to 230 °C

$$$$
>  <compound>
NC(=O)[C@H]1CN(c2cc(F)c(N3CCOCC3)c(F)c2)C(=O)O1

>  <observed.result>
181 to 183 °C

$$$$
>  <compound>
CNC(=O)[C@H]1CN(c2ccc3c(c2)sc(=O)n3C)C(=O)O1

>  <observed.result>
264 to 267 °C

$$$$
>  <compound>
NC(=O)[C@H]1CN(c2ccc(C3CCOCC3)c(F)c2)C(=O)O1

>  <observed.result>
153 to 156 °C

$$$$
>  <compound>
NC(=O)[C@H]1CN(c2ccc([C@H]3CC[S@+]([O-])CC3)cc2)C(=O)O1

>  <observed.result>
174 to 175 °C

$$$$
>  <compound>
NC(=O)[C@H]1CN(c2ccc(C3=CCOCC3)c(F)c2)C(=O)O1

>  <observed.result>
164 to 169 °C

$$$$
>  <compound>
CNC(=O)[C@H]1CN(c2ccc(N3CCOCC3)c(F)c2)C(=O)O1

>  <observed.result>
182 to 183 °C (dec.)

$$$$
>  <compound>
NC(=O)[C@H]1CN(c2cc(F)c(N3CC[S+]([O-])CC3)c(F)c2)C(=O)O1

>  <observed.result>
273 to 276 °C (dec.)

$$$$
>  <compound>
NC(=O)[C@H]1CN(c2ccc(N3Cc4cccnc4C3)c(F)c2)C(=O)O1

>  <observed.result>
257 °C (dec.)

$$$$
>  <compound>
C[C@@H]1Cc2cc(N3C[C@H](C(N)=O)OC3=O)ccc2N1C(=O)CO

>  <observed.result>
198 to 200 °C

$$$$
>  <compound>
CNC(=O)[C@H]1CN(c2cc(F)c3c(c2)CCC(=O)N3C)C(=O)O1

>  <observed.result>
264 to 265 °C

$$$$
>  <compound>
O=C(NO)[C@H]1CN(c2ccc(N3CCOCC3)c(F)c2)C(=O)O1

>  <observed.result>
141 to 143 °C

$$$$
>  <compound>
CNC(=O)[C@H]1CN(c2cc(F)c(N3CCOCC3)c(F)c2)C(=O)O1

>  <observed.result>
179 to 181 °C

$$$$
>  <compound>
CCCNC(=O)[C@H]1CN(c2ccc(N3CCOCC3)c(F)c2)C(=O)O1

>  <observed.result>
165 to 167 °C

$$$$
>  <compound>
NC(=O)[C@H]1CN(c2ccc([C@H]3CC[S@@+]([O-])CC3)c(F)c2)C(=O)O1

>  <observed.result>
279 to 281 °C (dec.)

$$$$
>  <compound>
CNC(=O)[C@H]1CN(c2ccc(N3Cc4cccnc4C3)c(F)c2)C(=O)O1

>  <observed.result>
275 °C (dec.)

$$$$
>  <compound>
CCn1c(=O)oc2cc(N3C[C@H](C(=O)NC)OC3=O)ccc21

>  <observed.result>
263 to 265 °C

$$$$
>  <compound>
CNC(=O)[C@H]1CN(c2cc(F)c(N3CC[S+]([O-])CC3)c(F)c2)C(=O)O1

>  <observed.result>
237 to 241 °C

$$$$
>  <compound>
NC(=O)[C@H]1CN(c2ccc(C3=CC[S+]([O-])CC3)c(F)c2)C(=O)O1 (stereo partly shown)

>  <observed.result>
182 to 184 °C (dec.)

$$$$
>  <compound>
CNC(=O)[C@H]1CN(c2ccc(C3CCS(=O)(=O)CC3)c(F)c2)C(=O)O1

>  <observed.result>
180.5 to 182 °C

$$$$
>  <compound>
NC(=O)[C@H]1CN(c2ccc(-c3cccnc3)c(F)c2)C(=O)O1

>  <observed.result>
240 to 242 °C (dec.)

$$$$

* * *

Reported melting point values for a set of compounds

>  <compound>
C=CCNC(=O)[C@H]1CN(c2ccc(N3CCOCC3)c(F)c2)C(=O)O1

>  <melting point>
167 to 169 °C

$$$$
>  <compound>
NC(=O)[C@H]1CN(c2cc(F)c([C@H]3CC[S@@+]([O-])CC3)c(F)c2)C(=O)O1

>  <melting point>
283 to 285 °C (dec.)

$$$$
>  <compound>
Cn1c(=O)sc2cc(N3C[C@H](C(N)=O)OC3=O)ccc21

>  <melting point>
274 to 276 °C (dec.)

$$$$
>  <compound>
Cn1c(=O)sc2cc(N3C[C@H](C(=O)NCCO)OC3=O)ccc21

>  <melting point>
217 to 219 °C

$$$$
>  <compound>
CCNC(=O)[C@H]1CN(c2ccc3c(c2)sc(=O)n3C)C(=O)O1

>  <melting point>
224.5 to 226 °C

$$$$
>  <compound>
NC(=O)[C@H]1CN(c2ccc(C3CCS(=O)(=O)CC3)c(F)c2)C(=O)O1 [Example 13]

>  <melting point>
229 to 231 °C (dec.)

$$$$
>  <compound>
CCn1c(=O)sc2cc(N3C[C@H](C(=O)NC)OC3=O)ccc21

>  <melting point>
227 to 229 °C

$$$$
>  <compound>
NC(=O)[C@H]1CN(c2ccc(C3=CCS(=O)(=O)CC3)c(F)c2)C(=O)O1

>  <melting point>
206 to 208 °C

$$$$
